conditions: in n-butanol, 283.2 K
reported_endpoint: solubility (mole fraction)

| molecular_string | assay_result |
| --- | --- |
| O=c1c2ccccc2nc2n1CCc1c-2[nH]c2ccccc12 | 0.000186 |

---

conditions: in ethyl acetate, 323.2 K

| molecular_string | solubility (mole fraction) |
| --- | --- |
| O=c1c2ccccc2nc2n1CCc1c-2[nH]c2ccccc12 | 0.00255 |

---

details: in isopropanol, 283.2 K
reported_endpoint: solubility (mole fraction)

| molecular_string | assay_result |
| --- | --- |
| O=c1c2ccccc2nc2n1CCc1c-2[nH]c2ccccc12 | 7.94e-05 |

---

conditions: in chloroform, 323.2 K

| molecular_string | solubility (mole fraction) |
| --- | --- |
| O=c1c2ccccc2nc2n1CCc1c-2[nH]c2ccccc12 | 0.00485 |

---

settings: in n-butanol, 313.2 K
reported_endpoint: solubility (mole fraction)

| molecular_string | reported_endpoint | assay_result |
| --- | --- | --- |
| O=c1c2ccccc2nc2n1CCc1c-2[nH]c2ccccc12 | solubility (mole fraction) | 0.000577 |

---

conditions: in diethyl ether, 283.2 K

| molecular_string | solubility (mole fraction) |
| --- | --- |
| O=c1c2ccccc2nc2n1CCc1c-2[nH]c2ccccc12 | 0.00024 |

---

conditions: in n-pentane, 293.2 K

| molecular_string | solubility (mole fraction) |
| --- | --- |
| O=c1c2ccccc2nc2n1CCc1c-2[nH]c2ccccc12 | 9.67e-06 |

---

details: in n-butanol, 303.2 K

| molecular_string | solubility (mole fraction) |
| --- | --- |
| O=c1c2ccccc2nc2n1CCc1c-2[nH]c2ccccc12 | 0.000369 |

---

details: in n-pentane, 288.2 K
reported_endpoint: solubility (mole fraction)

| molecular_string | assay_result |
| --- | --- |
| O=c1c2ccccc2nc2n1CCc1c-2[nH]c2ccccc12 | 6.89e-06 |

---

settings: in n-hexane, 323.2 K
reported_endpoint: solubility (mole fraction)

| molecular_string | assay_result |
| --- | --- |
| O=c1c2ccccc2nc2n1CCc1c-2[nH]c2ccccc12 | 3.97e-05 |

---

settings: in dichloromethane, 288.2 K

| molecular_string | solubility (mole fraction) |
| --- | --- |
| O=c1c2ccccc2nc2n1CCc1c-2[nH]c2ccccc12 | 0.00162 |

---

settings: in methanol, 303.2 K
reported_endpoint: solubility (mole fraction)

| molecular_string | assay_result |
| --- | --- |
| O=c1c2ccccc2nc2n1CCc1c-2[nH]c2ccccc12 | 0.000117 |

---

conditions: in dichloromethane, 298.2 K
reported_endpoint: solubility (mole fraction)

| molecular_string | assay_result |
| --- | --- |
| O=c1c2ccccc2nc2n1CCc1c-2[nH]c2ccccc12 | 0.00196 |

---

details: in methanol, 293.2 K
reported_endpoint: solubility (mole fraction)

| molecular_string | reported_endpoint | assay_result |
| --- | --- | --- |
| O=c1c2ccccc2nc2n1CCc1c-2[nH]c2ccccc12 | solubility (mole fraction) | 8.18e-05 |

---

details: in ethyl acetate, 293.2 K

| molecular_string | solubility (mole fraction) |
| --- | --- |
| O=c1c2ccccc2nc2n1CCc1c-2[nH]c2ccccc12 | 0.00123 |

---

settings: in cyclohexane, 283.2 K
reported_endpoint: solubility (mole fraction)

| molecular_string | reported_endpoint | assay_result |
| --- | --- | --- |
| O=c1c2ccccc2nc2n1CCc1c-2[nH]c2ccccc12 | solubility (mole fraction) | 6.24e-06 |

---

settings: in diethyl ether, 303.2 K

| molecular_string | solubility (mole fraction) |
| --- | --- |
| O=c1c2ccccc2nc2n1CCc1c-2[nH]c2ccccc12 | 0.000454 |

---

settings: in acetone, 303.2 K

| molecular_string | solubility (mole fraction) |
| --- | --- |
| O=c1c2ccccc2nc2n1CCc1c-2[nH]c2ccccc12 | 0.00129 |

---

conditions: in cyclohexane, 313.2 K
reported_endpoint: solubility (mole fraction)

| molecular_string | reported_endpoint | assay_result |
| --- | --- | --- |
| O=c1c2ccccc2nc2n1CCc1c-2[nH]c2ccccc12 | solubility (mole fraction) | 2.52e-05 |

---

details: in ethanol, 283.2 K

| molecular_string | solubility (mole fraction) |
| --- | --- |
| O=c1c2ccccc2nc2n1CCc1c-2[nH]c2ccccc12 | 9.75e-05 |

---

settings: in isopropanol, 303.2 K

| molecular_string | solubility (mole fraction) |
| --- | --- |
| O=c1c2ccccc2nc2n1CCc1c-2[nH]c2ccccc12 | 0.000192 |

---

details: in n-hexane, 303.2 K

| molecular_string | solubility (mole fraction) |
| --- | --- |
| O=c1c2ccccc2nc2n1CCc1c-2[nH]c2ccccc12 | 1.62e-05 |

---

conditions: in methanol, 283.2 K
reported_endpoint: solubility (mole fraction)

| molecular_string | reported_endpoint | assay_result |
| --- | --- | --- |
| O=c1c2ccccc2nc2n1CCc1c-2[nH]c2ccccc12 | solubility (mole fraction) | 6.61e-05 |

---

settings: in n-pentane, 303.2 K

| molecular_string | solubility (mole fraction) |
| --- | --- |
| O=c1c2ccccc2nc2n1CCc1c-2[nH]c2ccccc12 | 2.47e-05 |

---

conditions: in n-pentane, 298.2 K

| molecular_string | solubility (mole fraction) |
| --- | --- |
| O=c1c2ccccc2nc2n1CCc1c-2[nH]c2ccccc12 | 1.53e-05 |

---

details: in ethanol, 323.2 K

| molecular_string | solubility (mole fraction) |
| --- | --- |
| O=c1c2ccccc2nc2n1CCc1c-2[nH]c2ccccc12 | 0.000394 |

---

details: in isopropanol, 293.2 K

| molecular_string | solubility (mole fraction) |
| --- | --- |
| O=c1c2ccccc2nc2n1CCc1c-2[nH]c2ccccc12 | 0.000127 |

---

details: in isopropanol, 313.2 K

| molecular_string | solubility (mole fraction) |
| --- | --- |
| O=c1c2ccccc2nc2n1CCc1c-2[nH]c2ccccc12 | 0.000292 |

---

details: in methanol, 323.2 K

| molecular_string | solubility (mole fraction) |
| --- | --- |
| O=c1c2ccccc2nc2n1CCc1c-2[nH]c2ccccc12 | 0.000229 |

---

settings: in dichloromethane, 283.2 K
reported_endpoint: solubility (mole fraction)

| molecular_string | assay_result |
| --- | --- |
| O=c1c2ccccc2nc2n1CCc1c-2[nH]c2ccccc12 | 0.00142 |

---

settings: in acetone, 293.2 K

| molecular_string | solubility (mole fraction) |
| --- | --- |
| O=c1c2ccccc2nc2n1CCc1c-2[nH]c2ccccc12 | 0.000972 |

---

conditions: in diethyl ether, 288.2 K

| molecular_string | solubility (mole fraction) |
| --- | --- |
| O=c1c2ccccc2nc2n1CCc1c-2[nH]c2ccccc12 | 0.000273 |

---

conditions: in dichloromethane, 293.2 K
reported_endpoint: solubility (mole fraction)

| molecular_string | assay_result |
| --- | --- |
| O=c1c2ccccc2nc2n1CCc1c-2[nH]c2ccccc12 | 0.00182 |

---

conditions: in n-hexane, 293.2 K
reported_endpoint: solubility (mole fraction)

| molecular_string | reported_endpoint | assay_result |
| --- | --- | --- |
| O=c1c2ccccc2nc2n1CCc1c-2[nH]c2ccccc12 | solubility (mole fraction) | 1.21e-05 |

---

details: in chloroform, 293.2 K
reported_endpoint: solubility (mole fraction)

| molecular_string | reported_endpoint | assay_result |
| --- | --- | --- |
| O=c1c2ccccc2nc2n1CCc1c-2[nH]c2ccccc12 | solubility (mole fraction) | 0.000511 |

---

conditions: in dichloromethane, 303.2 K
reported_endpoint: solubility (mole fraction)

| molecular_string | assay_result |
| --- | --- |
| O=c1c2ccccc2nc2n1CCc1c-2[nH]c2ccccc12 | 0.00224 |

---

conditions: in n-pentane, 283.2 K
reported_endpoint: solubility (mole fraction)

| molecular_string | assay_result |
| --- | --- |
| O=c1c2ccccc2nc2n1CCc1c-2[nH]c2ccccc12 | 4.31e-06 |

---

details: in n-hexane, 313.2 K

| molecular_string | solubility (mole fraction) |
| --- | --- |
| O=c1c2ccccc2nc2n1CCc1c-2[nH]c2ccccc12 | 2.63e-05 |

---

settings: in chloroform, 313.2 K

| molecular_string | solubility (mole fraction) |
| --- | --- |
| O=c1c2ccccc2nc2n1CCc1c-2[nH]c2ccccc12 | 0.00211 |

---

settings: in diethyl ether, 298.2 K

| molecular_string | solubility (mole fraction) |
| --- | --- |
| O=c1c2ccccc2nc2n1CCc1c-2[nH]c2ccccc12 | 0.000396 |
